Target: human β3-AR (Homo sapiens)
Construct: expressed in transfected cells; host or cells: CHO (Chinese hamster ovary) cells, stably transfected
Assay: cAMP functional agonist assay (LANCE TR-FRET) in CHO cells expressing cloned human β3-AR
Format: cell-based
Conditions: CHO cells stably expressing cloned human β3-adrenoceptor; cAMP release; read-out: Human β3-AR Agonism EC50
Description: The ability of compounds to activate the human β3-AR receptor was measured using a CHO cell line stably expressing the cloned human β1-, β2-, and β3-adrenoceptors (β-AR). […] To quantify the amount of cAMP released following β-AR activation, the LANCE cAMP kit (Perking Elmer), a time-resolved fluorescence resonance energy transfer immunoassay, was used. […] For each assay, a cAMP standard curve was included and used to convert fluorescence readings directly to cAMP amounts. […]
pEC50: −log10 of the molar value.
measured attribute: pEC50

// known answers, use as guide
| compound | measured attribute | measured number |
| --- | --- | --- |
| CC(O)c1cncc(CN(C)C(=O)c2ccc(C[C@@H]3CC[C@H]([C@H](O)c4ccccc4)N3)cc2)c1 (stereo partly shown) [Example 31-B] | pEC50 | 7.80 |
| CN(Cc1cnccn1)C(=O)c1ccc(C[C@@H]2CC[C@H]([C@H](O)c3ccc(Cl)cc3)N2)cc1 [Example 40-G] | pEC50 | 7.72 |
| O=C(c1ccc(C[C@@H]2CC[C@H]([C@H](O)c3cccnc3)N2)cc1)N(CCO)Cc1cccnc1F [Example 27-H] | pEC50 | 5.86 |
| COCCN(C)C(=O)c1ccc(C[C@@H]2CC[C@H]([C@H](O)c3ccccc3)N2)cc1 [Example 1-B] | pEC50 | 6.35 |
| Cc1cc(CN(C)C(=O)c2ccc(C[C@@H]3CC[C@H]([C@H](O)c4ccc(Cl)nc4)N3)cc2)n[nH]1 [Example 4-A] | pEC50 | 8.30 |

(P) CN(Cc1cncc(C#N)c1)C(=O)c1ccc(C[C@@H]2CC[C@H]([C@H](O)c3ccccc3)N2)cc1 [Example 35-B]
(Q) CN(Cc1cccc(=O)[nH]1)C(=O)c1ccc(C[C@@H]2CC[C@H]([C@H](O)c3ccc(Cl)nc3)N2)cc1 [Example 20-A]
Qu. Select the item whose pEC50 value is smaller, choosing between P and Q . Identify your pick by its label.
Ans. P
(P: 7.21, Q: 8.30)

* * *

Molecular target: human β3-AR (Homo sapiens)
Construct: expressed in transfected cells; host or cells: CHO (Chinese hamster ovary) cells, stably transfected
Assay: cAMP functional agonist assay (LANCE TR-FRET) in CHO cells expressing cloned human β3-AR
Assay type: cell-based
Conditions: percent maximum activation relative to isoproterenol
measured attribute: Human β3-AR Agonist Activity (%)
Field: numeric (%). Do not append units.

Recorded Human β3-AR Agonist Activity (%), per entry:
| chemical structure | measured number |
| --- | --- |
| CN(Cc1cccnc1)C(=O)c1ccc(C[C@@H]2CC[C@H]([C@H](O)c3ccc(Cl)nc3)N2)cc1 | 102 |
| Cc1cc(CN(C)C(=O)c2ccc(C[C@@H]3CC[C@H]([C@H](O)c4cncc(F)c4)N3)cc2)[nH]n1 | 101 |
| CCN(Cc1cccnc1)C(=O)c1ccc(C[C@@H]2CC[C@H]([C@H](O)c3ccc(Cl)nc3)N2)cc1 | 62 |

Now for a further compound.
Qu. What value of Human β3-AR Agonist Activity (%) on human β3-AR (Homo sapiens) does `CN(Cc1n[nH]c2c1CCCC2)C(=O)c1ccc(C[C@@H]2CC[C@H]([C@H](O)c3ccc(Cl)nc3)N2)cc1` have?
Ans. 108

* * *

Biological target: human β3-AR (Homo sapiens)
Construct: expressed in transfected cells; host or cells: CHO (Chinese hamster ovary) cells, stably transfected
Assay: cAMP functional agonist assay (LANCE TR-FRET) in CHO cells expressing cloned human β3-AR
Assay type: cell-based
Settings: EC50 of comparative example divided by EC50 of corresponding 2-chloropyridine compound
measured attribute: Fold drop in potency vs. 2-chloropyridine analog (fold)

Illustrative cases are given below, each with its answer.
| molecule | measured number |
| --- | --- |
| CN(Cc1cccnc1)C(=O)c1ccc(C[C@@H]2CC[C@H]([C@H](O)c3cccnc3)N2)cc1 [Example 21-H] | 8.8 |
| O=C(c1ccc(C[C@@H]2CC[C@H]([C@H](O)c3cccnc3)N2)cc1)N(CCO)Cc1cccnc1F [Example 27-H] | 288.6 |
| CN(Cc1cncc(C(=O)O)c1)C(=O)c1ccc(C[C@@H]2CC[C@H]([C@H](O)c3ccccc3)N2)cc1 [Example 33-B] | 87.0 |
| CN(Cc1cccnc1)C(=O)c1ccc(C[C@@H]2CC[C@H]([C@H](O)c3cncc(F)c3)N2)cc1 [Example 21-R] | 13.3 |

(I) COc1c(C)n[nH]c1CN(C)C(=O)c1ccc(C[C@@H]2CC[C@H]([C@H](O)c3ccccc3)N2)cc1 [Example 16-B]
(II) Cc1cc(C(Cc2ccccc2)N(C)C(=O)c2ccc(C[C@@H]3CC[C@H]([C@H](O)c4cccnc4)N3)cc2)[nH]n1 (stereo partly shown) [Example 6-H]
(III) Cc1cc([C@@H](O)[C@H]2CC[C@@H](Cc3ccc(C(=O)N(C)Cc4cnccn4)cc3)N2)cnc1Cl [Example 40-S]
Qu. // smallest Fold drop in potency vs. 2-chloropyridine analog at index 0, largest at the end Please respond with the labels ordered as the question requires.
Ans. II, I, III

* * *

Molecular target: human β3-AR (Homo sapiens, UniProt P13945)
Construct: expressed in transfected cells; host or cells: CHO (Chinese hamster ovary) cells, stably transfected
Sequence (P13945 whole entry): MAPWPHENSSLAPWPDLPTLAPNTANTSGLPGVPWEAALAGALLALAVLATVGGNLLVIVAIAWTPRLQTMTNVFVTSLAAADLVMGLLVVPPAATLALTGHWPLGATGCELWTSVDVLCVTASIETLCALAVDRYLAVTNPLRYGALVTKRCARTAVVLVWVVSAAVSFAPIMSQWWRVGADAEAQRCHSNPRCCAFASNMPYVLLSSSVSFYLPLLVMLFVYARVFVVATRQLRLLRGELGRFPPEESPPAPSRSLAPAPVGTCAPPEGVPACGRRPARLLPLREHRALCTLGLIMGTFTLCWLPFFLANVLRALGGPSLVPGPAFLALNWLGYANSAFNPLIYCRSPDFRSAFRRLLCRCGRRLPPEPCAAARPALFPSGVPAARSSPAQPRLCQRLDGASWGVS
Assay: cAMP functional agonist assay (LANCE TR-FRET) in CHO cells expressing cloned human β3-AR
Type: cell-based
Settings: CHO cells stably expressing cloned human β3-adrenoceptor; cAMP release; read-out: Human β3-AR Agonism EC50
pEC50: −log10 of the molar value.
measured attribute: pEC50

Below are worked cases with known answers.
| compound | experimental system | pEC50 |
| --- | --- | --- |
| CN(Cc1cc(C(F)(F)F)[nH]n1)C(=O)c1ccc(C[C@@H]2CC[C@H]([C@H](O)c3cccnc3)N2)cc1 [Example 10-H] | human β3-AR (Homo sapiens, UniProt P13945) | 7.66 |
| COc1ccc(CN(C)C(=O)c2ccc(C[C@@H]3CC[C@H]([C@H](O)c4ccccc4)N3)cc2)cn1 [Example 29-B] | human β3-AR (Homo sapiens, UniProt P13945) | 7.07 |

(P) CN(Cc1cc(C2CC2)[nH]n1)C(=O)c1ccc(C[C@@H]2CC[C@H]([C@H](O)c3ccc(Cl)nc3)N2)cc1 [Example 8-A]
(Q) CN(Cc1cncc(C(=O)O)c1)C(=O)c1ccc(C[C@@H]2CC[C@H]([C@H](O)c3ccc(Cl)cc3)N2)cc1 [Example 33-G]
(R) O=C(c1ccc(C[C@@H]2CC[C@H]([C@H](O)c3ccc(Cl)nc3)N2)cc1)N(CCO)Cc1cccnc1F [Example 27-A]
Qu. Highest pEC50 first, then in falling order down to the smallest. I'd appreciate it if you listed the labels in the requested order.
Ans. R, P, Q
(R: 8.30, P: 7.70, Q: 7.20)

(a) CN(Cc1cncc(C(C)(C)O)c1)C(=O)c1ccc(C[C@@H]2CC[C@H]([C@H](O)c3ccccc3)N2)cc1 [Example 32-B]
(b) CN(Cc1cccnc1F)C(=O)c1ccc(C[C@@H]2CC[C@H]([C@H](O)c3ccc(Cl)nc3)N2)cc1 [Example 26-A]
Qu. Looking at recorded values for pEC50, does a or b come in lower? Record your answer as the label of the chosen record.
Ans. b
(b: 7.46, a: 7.66)

(I) CN(Cc1cccc(=O)[nH]1)C(=O)c1ccc(C[C@@H]2CC[C@H]([C@H](O)c3ccc(OC(F)F)cc3)N2)cc1 [Example 20-E]
(II) CCC(c1cc(C)[nH]n1)N(C)C(=O)c1ccc(C[C@@H]2CC[C@H]([C@H](O)c3cccnc3)N2)cc1 (some centres unmarked) [Example 5-H]
Qu. Out of I and II , name the one with the higher pEC50. Give the chosen item's label as your response.
Ans. II

(a) Cc1cc(CN(C)C(=O)c2ccc(C[C@@H]3CC[C@H]([C@H](O)c4ccc(Cl)cc4)N3)cc2)n[nH]1 [Example 4-G]
(b) COCc1cc(CN(C)C(=O)c2ccc(C[C@@H]3CC[C@H]([C@H](O)c4cccnc4)N3)cc2)n[nH]1 [Example 9-H]
(c) CC(C)[C@H](c1nn(C)c(=O)o1)N(C)C(=O)c1ccc(C[C@@H]2CC[C@H]([C@H](O)c3ccccc3)N2)cc1 [Example 19-B]
Qu. Put the compounds in ascending order of pEC50. Thanks in advance for listing the labels in the requested order.
Ans. b, c, a

* * *

Target: human β3-AR (Homo sapiens, UniProt P13945)
Construct: expressed in transfected cells; host or cells: CHO (Chinese hamster ovary) cells, stably transfected
Assay: cAMP functional agonist assay (LANCE TR-FRET) in CHO cells expressing cloned human β3-AR
Format: cell-based
Details: CHO cells stably expressing cloned human β3-adrenoceptor; cAMP release; read-out: Human β3-AR Agonism EC50
pEC50: −log10 of the molar value.
measured attribute: pEC50

| compound | measured number |
| --- | --- |
| Cc1cc([C@@H](O)[C@H]2CC[C@@H](Cc3ccc(C(=O)N(C)Cc4cccnc4)cc3)N2)cnc1Cl | 6.51 |
| CC(c1cnccn1)N(C)C(=O)c1ccc(C[C@@H]2CC[C@H]([C@H](O)c3ccc(F)cc3)N2)cc1 (some centres unmarked) | 8.22 |
| CN(Cc1cncc(F)c1)C(=O)c1ccc(C[C@@H]2CC[C@H]([C@H](O)c3ccccc3)N2)cc1 | 8.15 |
| CCOc1cc(CN(C)C(=O)c2ccc(C[C@@H]3CC[C@H]([C@H](O)c4ccc(Cl)nc4)N3)cc2)[nH]n1 | 8.15 |
| COC(C)CN(C)C(=O)c1ccc(C[C@@H]2CC[C@H]([C@H](O)c3ccccc3)N2)cc1 (mixture of isomers) | 6.77 |

(A) COc1ncccc1CN(C)C(=O)c1ccc(C[C@@H]2CC[C@H]([C@H](O)c3ccc(Cl)nc3)N2)cc1
(B) CN(Cc1cccc(=O)[nH]1)C(=O)c1ccc(C[C@@H]2CC[C@H]([C@H](O)c3ccc(Cl)cc3)N2)cc1
(C) CN(Cc1cnccn1)C(=O)c1ccc(C[C@@H]2CC[C@H]([C@H](O)c3cncc(F)c3)N2)cc1
(D) COCc1cc(CN(C)C(=O)c2ccc(C[C@@H]3CC[C@H]([C@H](O)c4ccc(OC(F)F)cc4)N3)cc2)n[nH]1
Qu. Sort ascending by pEC50. Answer by writing out the labels in the requested order.
Ans. C, D, A, B
(C: 6.43, D: 6.97, A: 7.74, B: 8.22)

(A) CN(Cc1cnccn1)C(=O)c1ccc(C[C@@H]2CC[C@H]([C@H](O)c3ccc(Cl)nc3)N2)cc1
(B) COC(=O)c1cncc(CN(C)C(=O)c2ccc(C[C@@H]3CC[C@H]([C@H](O)c4ccc(Cl)nc4)N3)cc2)c1
Qu. From the items above, decide which of A and B has the lower pEC50 reading. Your answer should be the label of the entry you select.
Ans. A
(A: 7.92, B: 8.22)

Source listed as patent US20160235727A1.
